Where these numbers come from: PubChem BioAssay

System: XIP peptide (Xip251-270) binding
experiment notes: small-molecule binders of XIP peptide, primary screen, biochemical, small-molecule microarray, fluorescence 635/667 nm, 0.1 µg/mL protein (AID 1182)
cond: fluorescent protein binding, 635 nm, higher = more signal, called active from +8 up or from −8 down
Answer no (0) if composite z-score is under -0.3, and yes (1) if it is -0.3 or more.

compound=C[C@@H]1CC[C@H]2C(=O)O[C@@H](Cc3ccccc3)CN2[C@H]1c1ccc(Br)cc1 class_assignment="yes (1)"
compound=COC(=O)[C@@H]1CC[C@H](C)[C@@H](c2ccc(C)cc2)N1C(=O)c1ccc(C=NO[C@H](C)c2cn([C@H](CO)Cc3ccccc3)nn2)cc1 class_assignment="no (0)"
compound="O=C1CCCC(C2=CCCCC2=O)C1 (stereo not given)" class_assignment="yes (1)"
compound=C[C@@H]1NC(=O)[C@@H](C)COC(=O)[C@H](C)NC(=O)[C@@H](C)COC1=O class_assignment="yes (1)"
compound=COc1ccc(COC(=O)NN=C2C[C@@H](O)[C@@H](O)[C@@H]3[C@@H]4C(=O)N(C5CCCCC5)C(=O)[C@@H]4CC[C@H]23)cc1 class_assignment="yes (1)"
compound="CCOC(=O)[C@H](CC(C)C)NC(=O)CCC1CC(OC(=O)NCc2ccc3c(c2)OCO3)CC2(CCCC(COC(=O)NCC(c3ccccc3)c3ccccc3)O2)O1 (stereo not given in full)" class_assignment="yes (1)"
compound=COC(=O)CC=C[C@@H](C)[C@@H](C=NO[C@H](C)c1cn([C@H](CO)Cc2ccccc2)nn1)NS(=O)(=O)c1ccc(C)cc1 class_assignment="no (0)"
compound=CC(C)(C)N1C(=O)[C@H]2[C@H]3[C@H](O)[C@H](O)CC(=NOCc4ccccc4)[C@H]3CC[C@H]2C1=O class_assignment="yes (1)"
compound="Cc1ccc(S(=O)(=O)NC(CCc2ccccc2)CC(=O)C(C)(C)C)cc1 (stereo not given)" class_assignment="yes (1)"

###

experiment notes: MM1S myeloma cell viability, profiling panel, resazurin fluorescence, basal, 24 h, PK04 Diversity Set (AID 1174);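 further: MM1S multiple myeloma cell line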
cond: higher = more signal, called active from +8 up or from −8 down
# z-score annotations
property: z-score

molecule=CCCNC(=O)OC[C@H]1O[C@H](c2ccccc2)C=C[C@@H]1Oc1ccc(OC)cc1 property=z-score reported=-1.06
molecule="CCOC(=O)[C@H](Cc1ccccc1)NC(=O)CCC1CC(OC(=O)NCCc2ccc(F)cc2)CC2(CCCC(COC(=O)NCCc3ccccc3OC)O2)O1 (stereo partly drawn)" property=z-score reported=-0.288
molecule=CC[C@@H](c1ccccc1)n1c(=O)n2n(c1=O)[C@H]1[C@H](O)[C@@H]3O[C@@H]3C(=NOC[C@@H](O)COCc3ccco3)[C@H]1CC2 property=z-score reported=-0.617

###

Reported z-score values are given for each entry in this list.
experiment notes: basal 3T3-L1 adipocyte mitochondrial potential changes, profiling panel, cell-based, JC-1 fluorescence, 3T3-L1 adipocytes, 24 h, 100 nL compound (AID 1168)
cond: JC-1 mitochondrial fluorescence, higher = more signal, called active from +8 up or from −8 down
Active and inactive are the calls of the source.
property: z-score

molecule=C[C@H]1COC(=O)[C@@H]2CCCN2C(=O)[C@@H](C)COC(=O)[C@H](Cc2ccccc2)NC1=O reported="-0.906 (inactive)"
molecule=COc1ccc(O[C@H]2C=C[C@@H](c3ccccc3)O[C@@H]2COC(=O)CCC(C)=NO[C@@H]2O[C@H](COC(C)=O)[C@@H](OC(C)=O)[C@H](OC(C)=O)[C@H]2OC(C)=O)cc1 reported="-0.882 (inactive)"
molecule=CCCNC(=O)OC[C@H]1O[C@H](CCON=Cc2ccc(C(=O)N3[C@H](c4ccc(C)cc4)[C@@H](C)CC[C@H]3C(=O)OC)cc2)C=C[C@@H]1Oc1ccc(OC)cc1 reported="-3.26 (inactive)"
molecule=C=CC[C@@H]1C=C[C@H](ON=C2[C@H]3CCn4c(=O)n(-c5ccccc5)c(=O)n4[C@H]3[C@H](O)[C@@H]3O[C@H]23)[C@@H](CO)O1 reported="-1.65 (inactive)"
molecule=CO[C@H]1COC(=O)CC=C[C@H](C)[C@@H](OC)COC(=O)[C@@H](C)NC(=O)CC=C[C@@H]1C reported="-1.76 (inactive)"
molecule=COc1ccc(O[C@H]2C=C[C@@H](c3ccccc3)O[C@@H]2CON=C(C)CCC(=O)OC[C@H]2O[C@H](c3ccccc3)C=C[C@@H]2Oc2ccc(OC)cc2)cc1 reported="0.244 (inactive)"
molecule=CC(C)=CCCC(C)=CCON=C1C[C@@H](O)[C@@H](O)[C@@H]2[C@@H]3C(=O)N(Cc4ccccc4)C(=O)[C@@H]3CC[C@@H]12 reported="0.199 (inactive)"
molecule=CC(C)CON=C1C[C@@H](O)[C@@H](O)[C@@H]2[C@@H]3C(=O)N(c4cccc(Oc5ccccc5)c4)C(=O)[C@@H]3CC[C@@H]12 reported="0.411 (inactive)"
molecule=CC(C)(C)N1C(=O)[C@H]2[C@H]3[C@H](O)[C@H](O)CC(=O)[C@H]3CC[C@H]2C1=O reported="-0.445 (inactive)"
molecule=CC(C)=NOC[C@@H](C)[C@H](OCc1ccccc1)C(C)C reported="0.0392 (inactive)"
molecule=COC(=O)CC=C[C@@H](C)[C@@H](C=NOC[C@H]1O[C@H](c2ccccc2)C=C[C@@H]1Oc1ccc(OC)cc1)NS(=O)(=O)c1ccc(C)cc1 reported="-1.06 (inactive)"
molecule=CO[C@H]1COC(=O)CC=C[C@@H](C)[C@H](OC)COC(=O)[C@@H]2CCCN2C(=O)CC=C[C@@H]1C reported="-0.0391 (inactive)"
molecule=CCCNC(=O)OC[C@H]1O[C@H](CCON=C(C)CCC(=O)OC[C@H]2O[C@H](c3ccccc3)C=C[C@@H]2Oc2ccc(OC)cc2)C=C[C@@H]1Oc1ccc(OC)cc1 reported="0.000229 (inactive)"
molecule=O=C(NN=C1C[C@@H](O)[C@@H](O)[C@@H]2[C@@H]3C(=O)N(C4CCCCC4)C(=O)[C@@H]3CC[C@@H]12)OCc1ccccc1 reported="-0.247 (inactive)"
molecule=C[C@@H]1C=CCC(=O)OC[C@H]2O[C@@H](C=C[C@@H]2O)[C@H](C)C=CCC(=O)OC1 reported="1.27 (inactive)"
molecule="O=C1CCCC(C2=CCCCC2=O)C1 (configuration not stated)" reported="-0.845 (inactive)"
molecule=CC(C)CON=C1C[C@@H](O)[C@@H](O)[C@@H]2[C@@H]3C(=O)N(C[C@@H]4CCCO4)C(=O)[C@@H]3CC[C@@H]12 reported="0.977 (inactive)"
